Record form. Attribute: % Binding retained on T-cells, 60° C.. Fill in for each entry.
System Tested: T1, CD3 on primary human pan T cells (human, UniProt P07766 23-207)
T1 construct: on cells it stands in the TCR/CD3 complex; also called Pan T-cells (CD3-positive); endogenous CD3
T1 sequence (P07766 23-207 limits assumed): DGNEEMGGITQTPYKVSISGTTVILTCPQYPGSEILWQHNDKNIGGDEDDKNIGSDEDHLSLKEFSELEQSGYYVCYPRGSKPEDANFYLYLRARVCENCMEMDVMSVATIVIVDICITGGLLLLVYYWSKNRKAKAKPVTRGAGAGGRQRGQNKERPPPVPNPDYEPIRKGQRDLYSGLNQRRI
Protocol Details: flow cytometry, pan T-cells
Give a bare numeral; the unit fraction is implied.

### Prompt What value of measured % Binding retained on T-cells, 60° C. is listed for CD3B2043 (scFv) scFv: QVQLVQSGAEVKKPGSSVKVSCKASGYTFTRSTMHWVRQAPGQGLEWIGYINPSSAYTNYNQKFQGRVTLTADKSTSTAYMELSSLRSEDTAVYYCASPQVHYDYNGFPYWGQGTLVTVSSGGSEGKSSGSGSESKSTGGSEIVLTQSPATLSASPGERVTLSCSASSSVSYMNWYQQKPGTAPRRLIYDSSKLASGVPARFSGSGSGRDYTLTISSLEPEDFAVYYCQQWSRNPPTFGGGTKVEIK ?
### Response 0.906

### Prompt Repeat for the following binder: CD3B2039 (scFv) scFv: QVQLVQSGAEVKKPGSSVKVSCKASGYTFTRSTMHWVKQAPGQGLEWMGYINPSSAYTNYAQKFQGRVTLTADKSTSTAYMELSSLRSEDTAVYYCASPQVHYDYNGFPYWGQGTLVTVSSGGSEGKSSGSGSESKSTGGSEIVLTQSPATLSASPGERVTLSCSASSSVSYMNWYQQKPGQSPRRWIYDSSKLASGVPARFSGSGSGRDYTLTISSLEPEDFAVYYCQQWSRNPPTFGGGTKVEIK
### Response 1

### Prompt Repeat for the following binder: CD3B2073 (scFv) scFv: QVQLVQSGAEVKKPGSSVKVSCKASGYTFTRSTMHWVRQAPGQGLEWMGYINPSSAYTNYNQKFQGRVTLTADKSTSTAYMELSSLRSEDTAVYYCASPQVHYDYNGFPYWGQGTLVTVSSGGSEGKSSGSGSESKSTGGSEIVLTQSPATLSASPGERVTLSCSASSSVSYMNWYQQKPGQAPRRWIYDSSKLASGVPARFSGSGSGRDYTLTISSLEPEDFAVYYCQQWSRNPPTFGGGTKVEIK
### Response 1.1

# credit: patent US20250145711A1
